biological target: T1, Hydrolyzed C3 (C3(H2O)) (human, UniProt P01024 23-1663, thioester hydrolyzed); assay: SPR (Biacore 2000), Efb-C immobilized, C3(H2O) as analyte, 1:1 Langmuir model; Kd=koff/kon
T1 construct: mature; Prepared according to established protocols
T1 sequence (P01024 23-1663): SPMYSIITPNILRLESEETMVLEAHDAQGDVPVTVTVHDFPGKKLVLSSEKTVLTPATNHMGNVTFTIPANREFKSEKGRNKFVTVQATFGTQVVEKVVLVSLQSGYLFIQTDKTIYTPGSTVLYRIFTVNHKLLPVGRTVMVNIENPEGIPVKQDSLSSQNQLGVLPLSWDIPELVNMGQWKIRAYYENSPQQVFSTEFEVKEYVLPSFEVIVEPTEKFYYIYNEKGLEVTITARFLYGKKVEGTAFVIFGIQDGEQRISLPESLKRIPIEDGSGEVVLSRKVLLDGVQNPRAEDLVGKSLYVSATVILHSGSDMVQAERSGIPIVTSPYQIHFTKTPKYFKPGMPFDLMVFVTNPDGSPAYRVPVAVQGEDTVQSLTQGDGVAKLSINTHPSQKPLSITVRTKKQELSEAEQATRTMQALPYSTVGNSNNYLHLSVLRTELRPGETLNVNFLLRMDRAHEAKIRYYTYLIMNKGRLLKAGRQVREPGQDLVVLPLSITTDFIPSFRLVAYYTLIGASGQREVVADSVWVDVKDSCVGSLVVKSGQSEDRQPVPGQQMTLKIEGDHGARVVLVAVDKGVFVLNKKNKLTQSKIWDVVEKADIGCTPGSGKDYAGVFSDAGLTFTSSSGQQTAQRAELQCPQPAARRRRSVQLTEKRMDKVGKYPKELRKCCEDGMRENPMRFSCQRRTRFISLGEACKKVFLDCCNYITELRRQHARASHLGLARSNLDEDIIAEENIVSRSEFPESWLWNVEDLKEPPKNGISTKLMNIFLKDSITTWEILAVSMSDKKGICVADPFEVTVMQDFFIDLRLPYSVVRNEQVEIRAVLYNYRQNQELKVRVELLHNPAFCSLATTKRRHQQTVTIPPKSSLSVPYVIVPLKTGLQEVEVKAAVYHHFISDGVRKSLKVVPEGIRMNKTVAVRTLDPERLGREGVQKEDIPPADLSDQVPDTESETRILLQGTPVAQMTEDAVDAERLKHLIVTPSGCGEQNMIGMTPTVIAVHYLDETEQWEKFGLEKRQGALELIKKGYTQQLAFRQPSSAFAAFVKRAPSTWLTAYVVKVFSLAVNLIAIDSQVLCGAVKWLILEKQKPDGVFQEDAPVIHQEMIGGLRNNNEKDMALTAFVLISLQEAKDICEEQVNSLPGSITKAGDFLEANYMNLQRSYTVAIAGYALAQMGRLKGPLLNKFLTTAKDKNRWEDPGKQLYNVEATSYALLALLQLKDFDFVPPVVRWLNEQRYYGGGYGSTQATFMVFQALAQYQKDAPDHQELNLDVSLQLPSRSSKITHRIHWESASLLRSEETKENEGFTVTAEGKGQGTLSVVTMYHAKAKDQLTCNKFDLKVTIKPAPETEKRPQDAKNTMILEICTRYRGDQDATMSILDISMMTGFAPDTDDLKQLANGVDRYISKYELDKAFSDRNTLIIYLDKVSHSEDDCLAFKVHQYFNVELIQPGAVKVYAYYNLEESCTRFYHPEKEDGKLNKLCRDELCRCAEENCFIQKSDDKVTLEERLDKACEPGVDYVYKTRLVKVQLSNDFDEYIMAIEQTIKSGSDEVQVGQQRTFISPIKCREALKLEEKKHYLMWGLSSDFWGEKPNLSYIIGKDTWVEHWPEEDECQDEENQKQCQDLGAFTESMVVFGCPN
Recorded Metric: Kd (nM)

# Binder, Recorded Metric, Unit, Reported Result
records = [
    ("Efb-C, C-terminal C3-binding domain of Efb from S. aureus strain Mu50 (other, Monomer in solution; also called wild-type Efb-C) FNKPAAKTDATIKKEQKLIQAQNLVREFEKTHTVSAHRKAQKAVNLVSFEYKVKKMVLQERIDNVLKQGLVR", "Kd", "nM", 1.9),
]
